Reference source for all entries: ChEMBL document CHEMBL5335838

measurementDescription: AUC in CD1 mouse at 3 mg/kg, iv
Type: ADME, organism-based
Design: dose 3 mg/kg, route iv
conditionDescription: in vivo
propertyMeasured: AUC (ng·h/mL)
Only the number, expressed in ng·h/mL, is required.

Look up and state reported AUC for C[C@]12C=CC(=O)C=C1CC[C@@H]1[C@@H]2[C@@H](O)C[C@@]2(C)[C@H]1C[C@H]1O[C@@H](c3ccc(Cc4cccc(N)c4)cc3)O[C@]12C(=O)CO
3580

====

measurementDescription: Volume of distribution at steady state in CD1 mouse at 3 mg/kg, iv
Format: ADME, organism-based
conditionDescription: in vivo, read-out: Vdss
propertyMeasured: Vd (L/kg)
Only the number, expressed in L/kg, is required.

Look up and state reported Vd for C[C@]12C=CC(=O)C=C1CC[C@@H]1[C@@H]2[C@@H](O)C[C@@]2(C)[C@H]1C[C@H]1O[C@@H](c3ccc(Cc4cccc(N)c4)cc3)O[C@]12C(=O)CO
2.91
